melting point: recorded values

[
  {
    "Molecule": "N#CC1CCc2c(C(=O)O)cccc21 (configuration not stated)",
    "melting point": "206 to 208 °C"
  },
  {
    "Molecule": "CC(C)(C(=O)O)c1ccc(C(=O)C2CC2)cc1",
    "melting point": "84 to 88 °C"
  },
  {
    "Molecule": "CCOCc1nc2c(N)nc3cc(OCc4csc(C)n4)ccc3c2n1CC(C)(C)O",
    "melting point": "200 to 201 °C"
  },
  {
    "Molecule": "COc1cc(OC)nc(CC#N)n1",
    "melting point": "65 to 67 °C"
  },
  {
    "Molecule": "COc1ccc(C(=O)Oc2ccccc2)c(O)c1",
    "melting point": "61.5 to 62.5 °C"
  }
]

Entry under test: `CC(C)[C@H](NC(=O)OCc1ccccc1)C(N)=O` . Its melting point was 206 °C

Entry under test: `CCCc1c(OCc2ccc(C(=O)O)c(Br)c2)ccc(C(C)=O)c1O` . Its melting point was 80 to 83 °C

Entry under test: `CCOC(=O)Cn1c(C(=O)NCc2nnc(C)n2-c2sc(C)cc2C(=O)c2ccccc2Cl)cc2ccccc21` . Its melting point was 153 to 154 °C

###

Measure Name: melting point

Below, each entry is followed by its recorded melting point result.
[
  {
    "Molecule": "CC(C)C(NC(=O)OCc1csc(N2CCCC2)n1)C(=O)NN(C(=O)OCc1cncs1)C(Cc1ccccc1)CC(O)CCc1ccccc1 (stereo not given)",
    "Value": "165 to 167 °C"
  },
  {
    "Molecule": "CN(C)C(=O)CCc1c(-c2ccccc2)n(C)c(=O)c2ccccc12",
    "Value": "166 °C"
  },
  {
    "Molecule": "O=S1(=O)CCN2CCCC(c3ccc(Oc4ccc(C(F)(F)F)cc4)cc3)C2=N1 (stereo not given)",
    "Value": "191 to 193 °C"
  },
  {
    "Molecule": "CSc1ccc(NC(=N)c2ccc(F)cc2)cc1",
    "Value": "121 to 124 °C"
  }
]

Entry under test: `CN(C)c1cncc(-c2nc(=O)c3ccccc3s2)n1` . Its melting point was 248 to 249 °C

###

melting point: recorded values

Below, each entry is followed by its recorded melting point result.
[
  {
    "Compound": "COc1cc(Nc2c(C#N)cnc3cc(-c4cc(CN5CCOCC5)c(CN5CCOCC5)s4)c(OC)cc23)c(Cl)cc1Cl",
    "Value": "120 to 124 °C"
  },
  {
    "Compound": "CCCCc1nc(C(=O)O)c(S(=O)(=O)c2ccccc2)n1Cc1ccc(-c2ccccc2C(=O)O)cc1",
    "Value": "155 °C"
  },
  {
    "Compound": "CC(O)C(=O)c1ccc(F)cc1F (stereo not given)",
    "Value": "49 to 51 °C"
  },
  {
    "Compound": "CN(C(=O)c1ccc(Cl)c(Cl)c1)c1ccccc1CCC(=O)O",
    "Value": "149 to 150 °C"
  },
  {
    "Compound": "N#CC=Cc1ccc(NC(=O)C=CC=C(Nc2cc(Cl)cc(Cl)c2I)C(=O)OCc2ccccc2)cc1",
    "Value": "132 to 134 °C"
  },
  {
    "Compound": "CCC1CC(=Cc2ccccc2Cl)C(=O)O1 (stereo not given)",
    "Value": "38 to 39 °C"
  },
  {
    "Compound": "CC1(C)CC(=O)c2cc[nH]c2C1",
    "Value": "177 to 178 °C"
  },
  {
    "Compound": "CC(C)(c1cc(F)ccc1O)c1cc(F)ccc1O",
    "Value": "155 °C"
  }
]

Entry under test: `CCOc1nc2cccc(C(=O)O)c2n1Cc1ccc(-c2ccccc2)c(-c2nnn[nH]2)c1` . Its melting point was 183 to 185 °C

Entry under test: CSC(C)(C(=O)O)c1ccc2oc(Cc3nc(-c4ccccc4)oc3C)cc2c1 (stereo not given) . Its melting point was 178 to 179 °C
